Tested on: L. donovani HU3 strain in mouse peritoneal macrophages
EXPERIMENT: Assay for proliferation of Leishmania parasites in infected mouse peritoneal macrophages (SybrGreen staining, high-content imaging, 5 days)
Format: cell-based, Leishmania donovani
PROTOCOL_CONDITIONS: Leishmania donovani, Peritoneal macrophage, L. donovani in mouse peritoneal macrophages, inhibition of proliferation; read-out: L. donovani Macrophage EC50
pEC50: −log10 of the molar value.
Response field class: enum, chosen by comparing pEC50 against bin 1 = under 5, bin 2 = from 5 up to 6, bin 3 = 6 and over

MOLECULE | CLASSIFICATION
CC(C)OC(=O)Nc1cnc2nc(-c3cc(NC(=O)c4cncn4C)ccc3F)cn2c1 | bin 1

Request: Form: Item = "CC(C)OC(=O)Nc1cnc2nc(-c3cc(NC(=O)c4nccs4)ccc3Cl)cn2c1" ; Class = ?
Response: bin 2

Request: Form: Item = "CC(C)OC(=O)Nc1cnc2nc(-c3cc(NC(=O)c4ccn(C)n4)ccc3F)cn2c1" ; Class = ?
Response: bin 2

Request: Form: Item = "O=C(Nc1ccc(F)c(-c2cn3cc(F)cnc3n2)c1)N1CC(F)C1" ; Class = ?
Response: bin 2

----------
So I've got a bunch of compounds here, and I need their EC50 values.
Tested on: Leishmania donovani axenic amastigote parasites
EXPERIMENT: Leishmania donovani axenic amastigote proliferation assay (Cell TiterGlo luminescence, 2 day incubation)
Format: cell-based
PROTOCOL_CONDITIONS: Leishmania donovani, read-out: L. donovani amastigotes EC50 (μM)
Give bare numbers, in µM.

STRUCTURE_NOTATION | EC50, µM
Cc1nc(C)c(C(=O)Nc2ccc(F)c(-c3cn4cc(N5CCN(C)CC5)cnc4n3)c2)o1 | 12.3

Request: Look up EC50: "CC(=O)Nc1cnc2nc(-c3cc(NC(=O)c4oc(C)nc4C)ccc3F)cn2c1"
Response: 5.35

----------
System: Trypanosoma cruzi amastigotes (Tulahuen strain expressing Lac-Z) cultured in 3T3 fibroblast cells
EXPERIMENT: microbe, parasite or virus in culture
Type: cell-based
PROTOCOL_CONDITIONS: Trypanosoma cruzi, TULAHUEN, Fibroblast, T. cruzi amastigotes in 3T3 fibroblast cells; read-out: T cruzi EC50
MEASURE: pEC50
Give bare numbers, as −log10 of the molar value.

Past entries and their recorded results:
COMPOUND | NUMERIC_RESULT
Cc1nc(C)c(C(=O)Nc2ccc(F)c(-c3cn4cc(C(C)C)cnc4n3)c2)o1 | 7.32
Cc1ccc(-c2cnc3nc(-c4cc(NC(=O)c5oc(C)nc5C)ccc4F)cn3c2)cn1 | 6.85

Need pEC50 for each of these compounds.
1. CC(C)(C)OC(=O)N1CCOC(C(=O)Nc2ccc(F)c(-c3cn4cc(C5CC5)cnc4n3)c2)C1 (centres unmarked)
2. Cc1cccc(-c2cnc3nc(-c4cc(NC(=O)c5oc(C)nc5C)ccc4F)cn3c2)n1

Response:
4.87
7.02

----------
System: L. donovani HU3 strain in mouse peritoneal macrophages
EXPERIMENT: Assay for proliferation of Leishmania parasites in infected mouse peritoneal macrophages (SybrGreen staining, high-content imaging, 5 days)
Type: cell-based, Leishmania donovani
PROTOCOL_CONDITIONS: Leishmania donovani, Peritoneal macrophage, L. donovani in mouse peritoneal macrophages, inhibition of proliferation; read-out: L. donovani Macrophage EC50
So I've got a bunch of molecules here, and I need their log10 of EC50 values.
Plainly stated, the numbers are log10 of EC50 given in nM.

MOLECULE | log10 of EC50
Cc1cc(C(=O)Nc2ccc(F)c(-c3cn4cc(NC(=O)OC(C)C)cnc4n3)c2)on1 [Compound 112] | 4.22
CC(C)OC(=O)Nc1cnc2nc(-c3cc(NC(=O)c4ccc(F)o4)ccc3Cl)cn2c1 [Compound 1] | 2.39
CCN(CC)C(=O)Nc1ccc(Cl)c(-c2cn3cc(NC(=O)OC(C)C)cnc3n2)c1 [Compound 274] | 3.28
COC(=O)Nc1ccc(-c2cnc3nc(-c4cc(NC(=O)c5ccc(C)o5)ccc4Cl)cn3c2)cc1 [Compound 27] | 2.04

Request: Look up log10 of EC50: COC(=O)Nc1ccc(-c2cnc3nc(-c4cc(NC(=O)N5CCCC5)ccc4Cl)cn3c2)cc1 [Compound 24]
Response: 1.76
